- methodDescription: AUC value after 15 mg/kg iv dose in Dogs
- Assay type: ADME, organism-based, Canis lupus familiaris
- Parameters: dose 15 mg/kg, route intravenous
- conditionDetails: dog, plasma
measurementType: AUC (ng·h/mL)
Number in ng·h/mL, nothing else.

Supply measured AUC of Cc1cc(C(=O)Nc2cccn([C@@H](Cc3ccc(F)c(F)c3)C(=O)N[C@H](/C=C/C(=O)OC(C)C)C[C@@H]3CCNC3=O)c2=O)no1 in your reply. 17100

---

- testTarget: Human rhinovirus A protease (Human rhinovirus sp.)
- Sequence (whole entry): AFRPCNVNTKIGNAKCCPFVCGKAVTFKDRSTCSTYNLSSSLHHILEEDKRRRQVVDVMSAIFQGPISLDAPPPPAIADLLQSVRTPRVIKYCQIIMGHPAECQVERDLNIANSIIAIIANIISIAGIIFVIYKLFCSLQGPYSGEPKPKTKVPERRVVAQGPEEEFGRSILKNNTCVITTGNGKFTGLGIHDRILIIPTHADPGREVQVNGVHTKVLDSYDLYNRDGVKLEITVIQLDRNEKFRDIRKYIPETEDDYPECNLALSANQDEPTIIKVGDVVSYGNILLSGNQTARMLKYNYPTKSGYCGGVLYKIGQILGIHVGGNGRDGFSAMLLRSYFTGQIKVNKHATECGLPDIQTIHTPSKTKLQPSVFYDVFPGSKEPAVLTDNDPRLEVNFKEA
- methodDescription: Inhibitory activity against Human Rhinovirus Protease 3C (serotype 14)
- conditionDetails: Rhinovirus B
measurementType: K obs / 1 (M⁻¹ s⁻¹)
Give your result in M⁻¹ s⁻¹ as a bare value.

Provide the reported K obs / 1 (system: Human rhinovirus A protease (Human rhinovirus sp.)) for CCOC(=O)/C=C/[C@H](CCC(N)=O)NC(=O)[C@H](Cc1ccc(F)c(F)c1)n1cccc(NC(=O)OCc2ccccc2)c1=O 193000

GET K obs / 1 where system = Human rhinovirus A protease (Human rhinovirus sp.) and item = CCOC(=O)/C=C/[C@H](C[C@@H]1CCNC1=O)NC(=O)[C@H](Cc1ccccc1)n1cccc(NC(=O)OCc2ccccc2)c1=O 380000

Report value: K obs / 1, system: Human rhinovirus A protease (Human rhinovirus sp.), compound: CCOC(=O)/C=C/[C@H](CCC(N)=O)NC(=O)[C@H](Cc1ccccc1)n1cccc(NC(=O)c2cc(C)on2)c1=O 329000

Give the observed K obs / 1 of CCOC(=O)/C=C/[C@H](CCC(N)=O)NC(=O)[C@H](Cc1ccccc1)n1ccc(C)c(NC(=O)c2cc(C)on2)c1=O for Human rhinovirus A protease (Human rhinovirus sp.). 116000

Using Human rhinovirus A protease (Human rhinovirus sp.) as the test system, report measured K obs / 1 of CCOC(=O)/C=C/[C@H](CCC(N)=O)NC(=O)[C@H](Cc1ccccc1)n1cccc(NC(=O)C2SCCS2)c1=O . 114000

Provide the reported K obs / 1 (system: Human rhinovirus A protease (Human rhinovirus sp.)) for CCOC(=O)/C=C/[C@H](CCC(N)=O)NC(=O)[C@H](Cc1ccccc1)n1cccc(NC(=O)C2CCCO2)c1=O (some centres not stated) 3750

Tell me K obs / 1 of CCOC(=O)/C=C/[C@H](CCC(N)=O)NC(=O)[C@H](Cc1ccc(F)cc1)n1cccc(NC(=O)OCc2ccccc2)c1=O when tested on Human rhinovirus A protease (Human rhinovirus sp.). 81400

Tell me K obs / 1 of CCOC(=O)/C=C/[C@H](CCC(N)=O)NC(=O)[C@H](Cc1ccccc1)n1cccc(NC(=O)C2CCCC2)c1=O when tested on Human rhinovirus A protease (Human rhinovirus sp.). 37400

Quote Human rhinovirus A protease (Human rhinovirus sp.) K obs / 1 for entry CCOC(=O)/C=C/[C@H](CCC(N)=O)NC(=O)[C@H](Cc1ccccc1)n1cccc(NC(=O)c2cc(Cl)on2)c1=O . 134000

Name the recorded K obs / 1 of CCOC(=O)/C=C/[C@H](CCC(N)=O)NC(=O)[C@H](Cc1ccccc1)n1cccc(NC(C)=O)c1=O , assay system Human rhinovirus A protease (Human rhinovirus sp.). 7660

// fetch K obs / 1 for CCOC(=O)/C=C/[C@H](C[C@@H]1CCNC1=O)NC(=O)[C@H](Cc1ccc(F)cc1)n1cccc(NC(=O)c2cc(C)on2)c1=O ; system: Human rhinovirus A protease (Human rhinovirus sp.) 1.25e+06

Enter measured K obs / 1, system Human rhinovirus A protease (Human rhinovirus sp.), for the compound shown: CCOC(=O)/C=C/[C@H](CCC(N)=O)NC(=O)[C@H](Cc1ccccc1)n1cccc(NC(=O)C(C)(C)C)c1=O 5040
